# tgt: MAST2, Q6P0Q8
# Sequence (Q6P0Q8 1099-1202): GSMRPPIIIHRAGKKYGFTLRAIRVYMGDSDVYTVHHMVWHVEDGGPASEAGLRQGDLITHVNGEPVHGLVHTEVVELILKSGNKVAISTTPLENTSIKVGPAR
# method.description: holdup assay
# Set-up: key: below the threshold = too weak to quantify, mostly under pKd 3.1 to 4
# condition.details: plain residues with an end cap or a label only (N-terminal biotin on a linker: ado-ado)
pKd of 5 or higher: Y. Under 5: N.

### Prompt Test whether the binder AEASVACSLC [PTGIR, P43119] records pKd of 5 or higher.
### Response N

### Prompt Test whether the binder NTLNRKTTPV [CACNG8, Q8WXS5] records pKd of 5 or higher.
### Response N

### Prompt Test whether the binder VLYPREGTEV [FOXI1, Q12951] records pKd of 5 or higher.
### Response Y

# credit: paper PMC9482650
